Here the recorded log10 GI50 is given for each entry.
tested on: DWD oral cancer cell line; test: MTT assay, 48 h continuous drug exposure, DWD; format: cell-based, human; conditions: oral cancer cell line; 48 h exposure; MTT; read-out: GI50 DWD
Lab note - GI50 converted to log10 from values in nM.

COc1ccc(Oc2ccc(C(=O)N3CCN(CCCCCOc4cc5c(cc4OC)C(=O)N4CCC[C@H]4C=N5)CC3)cc2N)cc1OC [23c] :: 2.18
COc1ccc(Oc2cccc(OCCCCCOc3cc4c(cc3OC)C(=O)N3CCC[C@H]3C=N4)c2[N+](=O)[O-])cc1OC [20g] :: 2.26
COc1ccc(Oc2ccc(C(=O)N3CCN(CCCCCOc4cc5c(cc4OC)C(=O)N4CCC[C@H]4C=N5)CC3)cc2N)cc1 [22c] :: 2.26
COc1ccc(Oc2cccc(OCCCCCOc3cc4c(cc3OC)C(=O)N3CCC[C@H]3C=N4)c2[N+](=O)[O-])cc1 [19g] :: 3.36
COc1cc2c(cc1OCCCCCOc1ccc(Oc3cc(OC)c(OC)c(OC)c3)c([N+](=O)[O-])c1)N=C[C@@H]1CCCN1C2=O [21c] :: 3.33
COc1ccc(Oc2cc(OCCCCCOc3cc4c(cc3OC)C(=O)N3CCC[C@H]3C=N4)ccc2N)cc1 [10g] :: 3.38

// next entry
Query: Form field: reported log10 GI50 of COc1cc2c(cc1OCCCCCOc1ccc(N)c(Oc3cc(OC)c(OC)c(OC)c3)c1)N=C[C@@H]1CCCN1C2=O [12g]
Reply: 2.23

* * *

test system: ZR-751 breast cancer cell line; assay: MTT assay, 48 h continuous drug exposure, ZR-751; type: cell-based, human; settings: breast cancer cell line; 48 h exposure; MTT; read-out: GI50 ZR-751
Here the recorded GI50 is given for each entry.
Just the number in µM, nothing appended.

These solved cases illustrate the format of a correct answer.
COc1cc2c(cc1OCCCCCN1CCN(C(=O)c3ccc(Oc4cc(OC)c(OC)c(OC)c4)c([N+](=O)[O-])c3)CC1)N=C[C@@H]1CCCN1C2=O [33c] :: 2.2
COc1ccc(Oc2ccc(OCCCCCOc3cc4c(cc3OC)C(=O)N3CCC[C@H]3C=N4)cc2I)cc1OC [17c] :: 3.8
COc1cc2c(cc1OCCCCCOc1cccc(Oc3cc(OC)c(OC)c(OC)c3)c1[N+](=O)[O-])N=C[C@@H]1CCCN1C2=O [21g] :: 0.18
COc1ccc(Oc2ccc(C(=O)N3CCN(CCCCCOc4cc5c(cc4OC)C(=O)N4CCC[C@H]4C=N5)CC3)cc2N)cc1 [22c] :: 0.19
COc1ccc(Oc2ccc(C(=O)N3CCN(CCCCCOc4cc5c(cc4OC)C(=O)N4CCC[C@H]4C=N5)CC3)cc2N)cc1OC [23c] :: 0.19

// next entry
Query: Form field: reported GI50 of COc1ccc(Oc2cccc(OCCCCCOc3cc4c(cc3OC)C(=O)N3CCC[C@H]3C=N4)c2[N+](=O)[O-])cc1OC [20g]
Reply: 0.19

* * *

tested on: MCF7 breast cancer cell line; assay: MTT assay, 48 h continuous drug exposure, MCF7; type: cell-based, human; conditions: 48 h exposure
Flag rule - GI50 less than 2000 nM flags t; the remaining entries get f.

Below are worked cases with known answers.
COc1ccc(Oc2cccc(OCCCCCOc3cc4c(cc3OC)C(=O)N3CCC[C@H]3C=N4)c2[N+](=O)[O-])cc1OC [20g] :: f
COc1cc2c(cc1OCCCCCOc1ccc(Oc3cc(OC)c(OC)c(OC)c3)c([N+](=O)[O-])c1)N=C[C@@H]1CCCN1C2=O [21c] :: t

Query: Is it true that GI50 reported for COc1ccc(Oc2cc(OCCCCCOc3cc4c(cc3OC)C(=O)N3CCC[C@H]3C=N4)ccc2N)cc1OC [11g] is less than 2000 nM?
Reply: t

Query: Is it true that GI50 reported for COc1ccc(Oc2ccc(OCCCCCOc3cc4c(cc3OC)C(=O)N3CCC[C@H]3C=N4)cc2I)cc1OC [17c] is less than 2000 nM?
Reply: f

Query: Is it true that GI50 reported for COc1ccc(Oc2ccc(C(=O)N3CCN(CCCCCOc4cc5c(cc4OC)C(=O)N4CCC[C@H]4C=N5)CC3)cc2[N+](=O)[O-])cc1OC [32c] is less than 2000 nM?
Reply: t

Query: Is it true that GI50 reported for COc1cc2c(cc1OCCCCCOc1ccc(Oc3cc(OC)c(OC)c(OC)c3)c(I)c1)N=C[C@@H]1CCCN1C2=O [18c] is less than 2000 nM?
Reply: f

Query: Is it true that GI50 reported for COc1ccc(Oc2ccc(OCCCCCOc3cc4c(cc3OC)C(=O)N3CCC[C@H]3C=N4)cc2I)cc1 [16c] is less than 2000 nM?
Reply: f

Source: patent US8809321B2
